molecular target: HIV-1 protease Mutant 9 (Human immunodeficiency virus type 1); assay: Ki against HIV-1 protease Mutant 9; type: biochemical; conditions: HIV-1 protease Mutant 9
Note to self: use y only for Ki readings below 500 pM; a reading exactly at 500 pM still gets n.

{"molecule": "CC(C)CN(CC(O)C(Cc1ccccc1)NC(=O)OC1COC2OCCC12)S(=O)(=O)c1ccc2onc(CNC(=O)C(F)(F)C(F)(F)F)c2c1 (stereo not drawn) [Compound 245]", "system_tested": "HIV-1 protease Mutant 9 (Human immunodeficiency virus type 1)", "cat": "n"}
{"molecule": "CC(C)CN(CC(O)C(Cc1ccccc1)NC(=O)OC1COC2OCCC12)S(=O)(=O)c1ccc2onc(CNCC(F)(F)F)c2c1 (stereo not drawn) [Compound 229]", "system_tested": "HIV-1 protease Mutant 9 (Human immunodeficiency virus type 1)", "cat": "y"}
{"molecule": "CCCOC(=O)NCc1noc2ccc(S(=O)(=O)N(CC(C)C)CC(O)C(Cc3ccccc3)NC(=O)OC3COC4OCCC34)cc12 (stereo not drawn) [Compound 222]", "system_tested": "HIV-1 protease Mutant 9 (Human immunodeficiency virus type 1)", "cat": "y"}
{"molecule": "CCOC(=O)C(C)NCc1noc2ccc(S(=O)(=O)N(CC(C)C)CC(O)C(Cc3ccccc3)NC(=O)OC3COC4OCCC34)cc12 (stereo not drawn) [Compound 206]", "system_tested": "HIV-1 protease Mutant 9 (Human immunodeficiency virus type 1)", "cat": "y"}
{"molecule": "CC(C)CN(CC(O)C(Cc1ccccc1)NC(=O)OC1COC2OCCC12)S(=O)(=O)c1ccc2onc(CNC(=O)OC(C)C)c2c1 (stereo not drawn) [Compound 212]", "system_tested": "HIV-1 protease Mutant 9 (Human immunodeficiency virus type 1)", "cat": "y"}
{"molecule": "CC(C)CN(CC(O)C(Cc1ccccc1)NC(=O)OC1COC2OCCC12)S(=O)(=O)c1ccc2onc(Cn3ccnc3)c2c1 (stereo not drawn) [Compound 216]", "system_tested": "HIV-1 protease Mutant 9 (Human immunodeficiency virus type 1)", "cat": "n"}

###

Reported pKi values for a set of molecules
molecular target: HIV-1 protease Mutant 9 (Human immunodeficiency virus type 1); assay: Ki against HIV-1 protease Mutant 9; format: biochemical; conditions: HIV-1 protease Mutant 9
pKi: −log10 of the molar value.

{"molecule": "CC(C)CN(CC(O)C(Cc1ccccc1)NC(=O)OC1COC2OCCC12)S(=O)(=O)c1ccc2onc(CNC(=O)C(C)C)c2c1 (stereo not drawn)", "relation_qualifier": "=", "pKi": 9.85}
{"molecule": "CC(C)CN(CC(O)C(Cc1ccccc1)NC(=O)OC1COC2OCCC12)S(=O)(=O)c1ccc2onc(CN)c2c1 (stereo not drawn)", "relation_qualifier": "=", "pKi": 9.15}
{"molecule": "CCSCCNCc1noc2ccc(S(=O)(=O)N(CC(C)C)CC(O)C(Cc3ccccc3)NC(=O)OC3COC4OCCC34)cc12 (stereo not drawn)", "relation_qualifier": ">", "pKi": 10.00}
{"molecule": "CC(C)CN(CC(O)C(Cc1ccccc1)NC(=O)OC1COC2OCCC12)S(=O)(=O)c1ccc2onc(CSCC(F)(F)F)c2c1 (stereo not drawn)", "relation_qualifier": "=", "pKi": 8.47}
{"molecule": "CCS(=O)(=O)N(CCOC)Cc1noc2ccc(S(=O)(=O)N(CC(C)C)CC(O)C(Cc3ccccc3)NC(=O)OC3COC4OCCC34)cc12 (stereo not drawn)", "relation_qualifier": "=", "pKi": 8.59}
{"molecule": "CCOC(=O)N(CCOC)Cc1noc2ccc(S(=O)(=O)N(CC(C)C)CC(O)C(Cc3ccccc3)NC(=O)OC3COC4OCCC34)cc12 (stereo not drawn)", "relation_qualifier": "=", "pKi": 9.36}
{"molecule": "CC(C)CN(CC(O)C(Cc1ccccc1)NC(=O)OC1COC2OCCC12)S(=O)(=O)c1ccc2onc(CNC(=O)C(F)(F)F)c2c1 (stereo not drawn)", "relation_qualifier": "=", "pKi": 9.44}
{"molecule": "COCCNCc1noc2ccc(S(=O)(=O)N(CC(C)C)CC(O)C(Cc3ccccc3)NC(=O)OC3COC4OCCC34)cc12 (stereo not drawn)", "relation_qualifier": "=", "pKi": 9.43}
{"molecule": "Cc1ccc(S(=O)(=O)N(C)Cc2noc3ccc(S(=O)(=O)N(CC(C)C)CC(O)C(Cc4ccccc4)NC(=O)OC4COC5OCCC45)cc23)cc1 (stereo not drawn)", "relation_qualifier": "=", "pKi": 8.77}
{"molecule": "Cc1nc(CNCc2noc3ccc(S(=O)(=O)N(CC(C)C)CC(O)C(Cc4ccccc4)NC(=O)OC4COC5OCCC45)cc23)cs1 (stereo not drawn)", "relation_qualifier": "=", "pKi": 9.66}
{"molecule": "CC(C)CN(CC(O)C(Cc1ccccc1)NC(=O)OC1COC2OCCC12)S(=O)(=O)c1ccc2onc(COC(=O)C(C)(C)C)c2c1 (stereo not drawn)", "relation_qualifier": "=", "pKi": 8.70}
{"molecule": "CC(C)CN(CC(O)C(Cc1ccccc1)NC(=O)OC1COC2OCCC12)S(=O)(=O)c1ccc2onc(CNCCNC(=O)OC(C)(C)C)c2c1 (stereo not drawn)", "relation_qualifier": "=", "pKi": 9.47}
{"molecule": "CC(C)CN(CC(O)C(Cc1ccccc1)NC(=O)OC1COC2OCCC12)S(=O)(=O)c1ccc2onc(COC(=O)C(C)C)c2c1 (stereo not drawn)", "relation_qualifier": "=", "pKi": 9.12}
{"molecule": "CC(C)CN(CC(O)C(Cc1ccccc1)NC(=O)OC1COC2OCCC12)S(=O)(=O)c1ccc2onc(CNC3CCCC3)c2c1 (stereo not drawn)", "relation_qualifier": "=", "pKi": 9.37}
{"molecule": "CC(C)CN(CC(O)C(Cc1ccccc1)NC(=O)OC1COC2OCCC12)S(=O)(=O)c1ccc2onc(CNCc3ccccn3)c2c1 (stereo not drawn)", "relation_qualifier": "=", "pKi": 9.80}
{"molecule": "CC(C)CN(CC(O)C(Cc1ccccc1)NC(=O)OC1COC2OCCC12)S(=O)(=O)c1ccc2onc(CNCc3ccccc3)c2c1 (stereo not drawn)", "relation_qualifier": "=", "pKi": 9.96}
{"molecule": "CC(C)CN(CC(O)C(Cc1ccccc1)NC(=O)OC1COC2OCCC12)S(=O)(=O)c1ccc2onc(CNCC(F)(F)C(F)(F)F)c2c1 (stereo not drawn)", "relation_qualifier": "=", "pKi": 9.70}
{"molecule": "CCCCNCc1noc2ccc(S(=O)(=O)N(CC(C)C)CC(O)C(Cc3ccccc3)NC(=O)OC3COC4OCCC34)cc12 (stereo not drawn)", "relation_qualifier": "=", "pKi": 9.54}
{"molecule": "CC(C)CN(CC(O)C(Cc1ccccc1)NC(=O)OC1COC2OCCC12)S(=O)(=O)c1ccc2onc(CNC(=O)c3ccco3)c2c1 (stereo not drawn)", "relation_qualifier": "=", "pKi": 9.59}
{"molecule": "CC(C)CN(CC(O)C(Cc1ccccc1)NC(=O)OC1COC2OCCC12)S(=O)(=O)c1ccc2onc(CSC(C)C)c2c1 (stereo not drawn)", "relation_qualifier": "=", "pKi": 8.64}
{"molecule": "CC(C)CN(CC(O)C(Cc1ccccc1)NC(=O)OC1COC2OCCC12)S(=O)(=O)c1ccc2onc(CN(C)S(C)(=O)=O)c2c1 (stereo not drawn)", "relation_qualifier": "=", "pKi": 8.89}

###

system: HIV-1 isolates, WT; test: In vitro drug sensitivity of HIV-1 laboratory isolates, WT; type: cell-based; settings: WT
pIC50: −log10 of the molar value.

{"compound": "CC(C)CN(C[C@@H](O)[C@H](Cc1ccccc1)NC(=O)OC1COC2OCCC12)S(=O)(=O)c1ccc2occ(CNC(=O)CSCc3ccccc3)c2c1 (stereo partly drawn) [Compound 119]", "pIC50": 8.30}
{"compound": "CC(C)CN(C[C@@H](O)[C@H](Cc1ccccc1)NC(=O)OC1COC2OCCC12)S(=O)(=O)c1ccc2occ(CNC(=O)c3cccnc3)c2c1 (stereo partly drawn) [Compound 118]", "pIC50": 7.52}
{"compound": "CC(C)CN(C[C@@H](O)[C@H](Cc1ccccc1)NC(=O)OC1COC2OCCC12)S(=O)(=O)c1ccc2occ(CN3CCOCC3)c2c1 (stereo partly drawn) [Compound 108]", "pIC50": 8.82}
{"compound": "CCOC(=O)NCc1coc2ccc(S(=O)(=O)N(CC(C)C)C[C@@H](O)[C@H](Cc3ccccc3)NC(=O)OC3COC4OCCC34)cc12 (stereo partly drawn) [Compound 112]", "pIC50": 8.74}
{"compound": "CC(C)CN(C[C@@H](O)[C@H](Cc1ccccc1)NC(=O)OC1COC2OCCC12)S(=O)(=O)c1ccc2occ(CNCC(=O)OC(C)(C)C)c2c1 (stereo partly drawn) [Compound 110]", "pIC50": 8.47}
{"compound": "CC(=O)NCc1coc2ccc(S(=O)(=O)N(CC(C)C)C[C@@H](O)[C@H](Cc3ccccc3)NC(=O)OC3COC4OCCC34)cc12 (stereo partly drawn) [Compound 107]", "pIC50": 7.82}

FYI, the data here is from patent US20100056596A1.
